The reported measurements were obtained from ChEMBL document CHEMBL1157286.

tested on: Vero; assay: Cytotoxicity against african green monkey Vero cells upto 48 uM; type: cell-based; conditions: chlorocebus sabaeus
Parameter measured: Activity

- Compound: "COc1c2c(cc3c1-c1c(cc4c(c1OC)OCO4)C[C@H](C)[C@H](C)C3)OCO2 [SCHISANDRIN C]"
  Parameter measured: "Activity"
  Endpoint result: "Not Active"
- Compound: "COc1cc2c(c(OC)c1OC)-c1c(cc(OC)c(OC)c1OC)C[C@](C)(O)[C@@H](C)C2 [SCHIZANDRIN]"
  Parameter measured: "Activity"
  Endpoint result: "Not Active"
- Compound: "C/C=C(/C)C(=O)Oc1c(OC)c(OC)cc2c1-c1c(cc(OC)c(OC)c1OC)CC(C)(O)C(C)C2 (centres undefined) [ANGELOYLGOMISIN]"
  Parameter measured: "Activity"
  Endpoint result: "Not Active"
- Compound: "C/C=C(\\C)C(=O)Oc1c(OC)c(OC)cc2c1-c1c(cc(OC)c(OC)c1OC)C[C@](C)(O)[C@@H](C)C2 [TIGLOYLGOMISIN H]"
  Parameter measured: "Activity"
  Endpoint result: "Not Active"
